Assay: qHTS Screen of the MIPE 4.0 Collection Against Ewings Sarcoma (TC71) (AID 1259253); also: nearly all actives have a fitted effect of over 40% in size
Settings: TC71 Ewing sarcoma viability, CellTiter-Glo, 48 h; series mostly up to 45.8 µM
Results filed as inconclusive are left out. Calls of active or inactive are those of the source. Calls follow the shape of the dose curve; as a rule, active = well fitted inhibition curve with a large enough effect; inconclusive = small, poorly fitted or top-dose-only effect; inactive = no such curve, though single readings can be large or run the other way.
Respond with a class label; see active, inactive

A selection of reference data follows.
[
  {
    "compound": "O=C(CCCCCCNC(=O)c1cnc(N(c2ccccc2)c2ccccc2)nc1)NO",
    "label_class": "active"
  },
  {
    "compound": "CN(c1ncccc1CNc1nc(Nc2ccc3c(c2)CC(=O)N3)ncc1C(F)(F)F)S(C)(=O)=O",
    "label_class": "active"
  },
  {
    "compound": "O=C(c1cncc(Br)c1)N1CCC(N2CCCC2)CC1",
    "label_class": "inactive"
  }
]

Just curious, what result did COc1cc2ncn(-c3cc(OCc4ccccc4C(F)(F)F)c(C(N)=O)s3)c2cc1OC get here? active

Now consider CN[C@H]1CCc2cc(OC)c(OC)c(OC)c2-c2ccc(OC)c(=O)cc21 and answer again. active

And what about the compound C[C@@H]1COC(Nc2ccc3ncnc(Nc4ccc(OCc5nccs5)c(Cl)c4)c3c2)=N1 ? active

Quick one: Cc1cccc(C=NNc2cc(N3CCOCC3)nc(OCCc3ccccn3)n2)c1 active

Then CCc1c2c(nc3ccc(O)cc13)-c1cc3c(c(=O)n1C2)COC(=O)[C@]3(O)CC ? active

Note, next up: CC(C)c1cc(-c2n[nH]c(=O)n2-c2ccc3c(ccn3C)c2)c(O)cc1O active

Also CC1(C)CC(=O)c2c(C(F)(F)F)nn(-c3ccc(C(N)=O)c(NC4CCC(OC(=O)CN)CC4)c3)c2C1 (stereo not given) ? active

What would you report for CC(C)(O)CCc1ccc(OCc2cc(-c3cccc(OC(F)F)c3)c3ncccc3c2)cc1 ? inactive

* * *

Experiment: qHTS of pediatric cancer cell lines to identify multiple opportunities for drug repurposing: Primary screen for LAN-5 cells (AID 1347100); also: potency is read from the fitted curve at half-maximal effect
Details: LAN-5 neuroblastoma viability, CellTiter-Glo luminescence, 48 h; series mostly up to 46 µM
Results filed as inconclusive are left out. Active and inactive are the calls of the source. The call rests on the fitted dose curve; in most records, active means well fitted cell-killing curve with a large enough effect; inconclusive means small, poorly fitted or top-dose-only effect; inactive means no such curve, though single readings can be large or run the other way.
Readings of Potency for the listed molecules

[
  {
    "structure_smiles_string": "COc1cc2c(Oc3ccc4[nH]c(C)cc4c3F)ncnc2cc1OCCCN1CCCC1",
    "Potency": "20900 nM (active)"
  }
]

Which Potency is reported for this molecule? NC(=O)Nc1cc(-c2cccc(F)c2)sc1C(=O)N[C@H]1CCCNC1 469 nM (active)

Can you check CN(C)CC=CC(=O)Nc1cc2c(Nc3ccc(F)c(Cl)c3)ncnc2cc1O[C@H]1CCOC1 next? 7430 nM (active)

One more molecule: CCn1nnc2c(N3CCOCC3)nc(-c3ccc(NC(=O)Nc4ccc(C(=O)N5CCN(C)CC5)cc4)cc3)nc21 83.3 nM (active)

Try this molecule next: CNC(=O)c1nn(C)c2c1C(C)(C)Cc1cnc(Nc3ccc(N4CCN(C)CC4)cc3)nc1-2 662 nM (active)

* * *

Experiment: Identifying Small Molecule Inhibitors of Pancreatic Cancer Stem Cells (SN12C, Spheroid) (AID 1259360)
Settings: SN12C spheroid viability; series mostly up to 46.1 µM
Inconclusive results are not listed. Active and inactive are the calls of the source. Calls come from the whole dose curve; as a rule, active = well fitted cell-killing curve with a large enough effect; inconclusive = small, poorly fitted or top-dose-only effect, or effect the other way; inactive = flat fitted curve, though single readings scatter.
A correct response names exactly one class from active, inactive

Study these solved cases before continuing.
[
  {
    "molecule": "O=C(C=Cc1cccnc1)NCCCCC1CCN(C(=O)c2ccccc2)CC1",
    "label_class": "active"
  },
  {
    "molecule": "C=C1C(=CC=C2CCC[C@]3(C)[C@@H]([C@H](C)C=C[C@H](C)C(C)C)CC[C@@H]23)C[C@@H](O)C[C@@H]1O",
    "label_class": "inactive"
  },
  {
    "molecule": "CCC(=C(c1ccccc1)c1ccc(OCCN(C)C)cc1)c1ccccc1",
    "label_class": "active"
  }
]

# ---- query molecule ----
Called result for c1cc(-c2cnn3cc(-c4ccc(OCCN5CCCCC5)cc4)cnc23)ccn1 inactive

Source: PubChem BioAssay (NCATS)
